- Test system: ubiquinone binding site of complex I (IQ)
- Assay: High-throughput screen: ROS production from ubiquinone binding site of complex I (IQ), isolated skeletal muscle mitochondria
- Format: biochemical, rat
- Conditions: Table 9; percent change in ROS from DMSO controls
Assay Metric: IQ
One number for each entry.

Study these solved cases before continuing.
1. Fc1ccc(SCCc2ccccn2)cc1: 7.9
2. CC(C)(C)NS(=O)(=O)c1ccc2c(c1)C(=O)c1ccccc1C2=O: −60.6
3. CCN1CCN(C2CCC(C(C)(C)C)CC2)CC1 (centres unmarked): −0.4
4. CC1=CC(C)(C)N(Cc2ccc([N+](=O)[O-])cc2)c2ccccc21: 0.3

// switching to the query molecule
Determine from records and report IQ for CCN1CCN(C/C=C/c2ccc(N(C)C)cc2)CC1
−2.9
